system: UO-31 renal; assay: NCI tumour cell line growth inhibition, 48 h
Measured TGI of individual entries
property_measured: TGI (µM)

Cc1cc(O)ccc1C1(c2ccc(F)cc2)OC(=O)c2ccccc21 (stereo unspecified); 16.1
Nc1n[nH]c(N)c1N=Nc1ccc(O)cc1; 66.3
CC(C)(C)c1cc(C(=O)/C=C/c2ccn[nH]2)cc(C(C)(C)C)c1O; 3.23

---

test system: SF-295 CNS; test: NCI tumour cell line growth inhibition, 48 h
Form field: TGI (one value per entry).
property_measured: TGI (µM)

CCN1CCCC(Nc2cc(C)nc(/N=C(/N)Nc3ccc(Cl)c(Cl)c3)n2)C1 (stereo not given); 2.41
Clc1ccccc1NN(Cc1ccncc1)c1ccccc1Cl; 31.6
O=C1c2ccccc2-c2nc(-c3ccccc3)cc3c2c1nc1ccccc13; 27.6
O=NN(CCCl)C(=O)NC1CCC(=O)NC1=O (stereo not given); 331
CCOC(=O)C1=C(C)N2C(=NC3=C(CCC/C3=C\c3ccc(Cl)cc3)C2c2ccc(Cl)cc2)S1 (stereo not given); 8.76
CCN(CC)CCCC(C)Nc1c(-c2ccccc2)cnc2cc(Cl)ccc12 (stereo not given); 9

---

tested on: EKVX NSCLC; assay: NCI tumour cell line growth inhibition, 48 h; in the data active = GI50 below about 0.43 µM; inactive = the rest
Outcome codes: YES for active, NO for inactive

COc1ccc2c(c1)/C(=C\c1c[nH]c3ccc(OC)cc13)C(=O)N2; NO
CC(=O)O.CC(=O)O.CC(=O)O.CC(=O)O.[Rh].[Rh]; NO
O=C(Nc1ccccc1Cl)c1cccc(NC2=C(Cl)C(=O)N(Cc3ccccc3)C2=O)c1; NO
O=C1/C(=C/c2cccc(Br)c2)COc2ccc(O)c(O)c21; NO
COc1ccc(Oc2ccccc2NC(=O)CNC(=O)c2cccc3ccccc23)cc1; NO
COc1ccc2c(c1)C(=O)c1c-2c(N2CCNCC2)nc2ccccc12; NO
C=C1CC[C@@H]2[C@](C)(COC(C)=O)[C@H](OC(C)=O)CC[C@@]2(C)[C@@H]1CC(Nc1ccc(S(=O)(=O)Nc2nccs2)cc1)C1=CCOC1=O (stereo partly specified); NO
NS(=O)(=O)c1cccc(-c2ccc3c(NC(=O)C4CC4)n[nH]c3c2)c1; NO
O=c1c(-c2ccccc2)coc2cc(OC/C(=N/O)c3ccc(F)cc3)ccc12; NO
CCN(C(=O)CN1CCN(c2cc3c(cc2F)c(=O)c(C(=O)O)cn3CC)CC1)c1nc(-c2ccccc2)cs1; YES
Cc1cc(NC(=O)c2cnc(N3CCN(CCOCCOCCOCCOCCC(=O)N[C@H](C(=O)N4C[C@H](O)C[C@H]4C(=O)N[C@@H](C)c4ccc(-c5scnc5C)cc4)C(C)(C)C)CC3)cn2)c2ncccc2c1; NO
O=C1CCC(N2C(=O)c3cccc(NCCCC4CCN(CCNC(=O)c5cc6c(o5)C(=O)c5ccccc5C6=O)CC4)c3C2=O)C(=O)N1 (stereo unspecified); NO
O=S(=O)(NC1=NCCN1C(=S)SN1CCn2c1nsc2=S)c1cccc(OC(F)(F)F)c1; NO
Cc1ccc(Sc2oc(-c3ccc(C)cc3)nc2[P+](c2ccccc2)(c2ccccc2)c2ccccc2)cc1; YES
CN1CCN(c2cc3nc4ccccc4n(-c4ccc(Cl)cc4)c-3cc2=N)CC1; NO
COc1ccc2c(c1)C(=O)c1c-2n(CCCN)c(=O)c2cc([N+](=O)[O-])ccc12; YES
C=CCCCOC1[C@H](OCc2ccccc2)C(OCc2ccccc2)C(OC)O[C@@H]1CNC(=O)c1cccc(I)c1 (stereo partly specified); NO
Nc1n[nH]c2ccc([C@@H]3Nc4cc5[nH]ncc5cc4[C@H]4C5CCC(C5)[C@@H]34)cc12 (stereo partly specified); NO
O=C1CSC(c2ccccc2O)N1c1nnc(Cn2ccnc2)o1 (stereo unspecified); NO
CCOC(=O)C1=C(C)N2C(=NC3=C(CCC/C3=C\c3ccc(Cl)cc3)C2c2ccc(Cl)cc2)S1 (stereo unspecified); NO
Nc1n[nH]c(N)c1N=Nc1ccc(O)cc1; NO

---

tested on: NCI/ADR-RES ovarian; assay: NCI tumour cell line growth inhibition, 48 h; in the data active = GI50 below about 0.43 µM; inactive = the rest
Labels: active, inactive

OCc1ccc(N2CCCC2)cc1Cl; inactive
O=S(=O)(NC1=NCCN1C(=S)SN1CCn2c1nsc2=S)c1cccc(OC(F)(F)F)c1; inactive
O=C(Nc1cnc(C(F)(F)F)cn1)c1cc(Cl)ccc1O; active
CCN1C(=O)N(CC)C2C1NN=c1s/c(=C\c3ccc[nH]3)c(=O)n12 (centres undefined); active

---

test system: HOP-92 NSCLC; assay: NCI tumour cell line growth inhibition, 48 h
property_measured: TGI

COc1cccc(CC(C)=C(c2ccc(OCCCN(C)C)cc2)c2ccc(OCCCN(C)C)cc2)c1; 3.79 µM
COC(=O)C1=C(C)N(NC(=O)c2ccccc2)C2(O)CCCC(=O)C12C (stereo unspecified); > 100 µM
N#Cc1c(Nc2nc3ccccc3s2)c2ccccc2n2c1nc1ccccc12; > 100 µM
CCNc1ncnc2c1nnn2CC; > 100 µM
O=C(NN1C(=O)CSC1c1ccc(F)cc1)C(O)c1ccccc1 (stereo unspecified); > 100 µM
CCCCCn1c(=O)c2c(=O)[nH][nH]c2c2ccccc21; > 100 µM
Nc1n[nH]c2ccc([C@@H]3Nc4cc5[nH]ncc5cc4[C@H]4C5CCC(C5)[C@@H]34)cc12 (stereo partly specified); > 46.2 µM
NS(=O)(=O)c1cccc(-c2ccc3c(NC(=O)C4CC4)n[nH]c3c2)c1; > 25 µM
O=C(CCc1nc(=S)[nH][nH]1)Nc1cccc(C(F)(F)F)c1; > 100 µM
CC/C=C\C/C=C/C=C1/C(=O)C=C[C@@H]1C/C=C\CCCC(=O)OC; 8.49 µM
CNC(=S)N/N=C(\C)c1nc2ncccc2[nH]1; > 100 µM

---

test system: DU-145 prostate; assay: NCI tumour cell line growth inhibition, 48 h
Each record here notes measured TGI.
property_measured: TGI

OCc1ccc(N2CCCC2)cc1Cl; > 100 µM
COc1ccc2c(c1)C(=O)c1c-2c(N2CCNCC2)nc2ccccc12; 4.73 µM
CCOC1OC(=O)[C@H]2[C@@H]1[C@@H]1CC[C@H]2O1 (some centres not stated); > 100 µM
Cc1ccc(S(=O)(=O)c2ccc([N+](=O)[O-])o2)cc1; 8.58 µM
Cc1nn(C(=O)c2ccncc2)c2c1C(c1cccc([N+](=O)[O-])c1)SC(N)=N2 (configuration not stated); > 10 µM
COc1cc2c(cc1-c1coc3cc(OCC=C(C)C)ccc3c1=O)OCO2; > 100 µM
N#CC12C(=O)N3C(=NC(c4ccccc4)NC3c3ccccc3)C1(C#N)C(c1ccccc1)NC1=C2CCCC1 (configuration not stated); > 100 µM
COc1cc(C(c2cccc3ccccc23)N2C(=O)CCC2C(=O)NCc2ccccc2)cc(OC)c1OC (configuration not stated); > 100 µM
Nc1n[nH]c(N)c1N=Nc1ccc(O)cc1; 62.5 µM
Cn1nnc2c(C(N)=O)ncn2c1=O; > 100 µM
COc1cc(/C=C/[N+](=O)[O-])cc(OC)c1OC; 6.31 µM
Cc1ccnc(NC(=S)Nc2cccc(Cl)c2)c1; > 100 µM
Nc1n[nH]c2ccc([C@@H]3Nc4cc5[nH]ncc5cc4[C@H]4C5CCC(C5)[C@@H]34)cc12 (some centres not stated); > 100 µM
O=NN(CCCl)C(=O)NC1CCC(=O)NC1=O (configuration not stated); 1060 µM
CC1(C)CC2=C(Sc3ccccc3N2)C(=O)C1C(=O)C(=O)Nc1cc(Cl)ccc1Cl (configuration not stated); > 100 µM
COc1nc(OC)nc(-c2cccc(F)c2)n1; 26.8 µM
C=C(Br)CNCC(=C)Br; > 100 µM
CCSc1nc(N)c(C#N)c(-c2ccco2)c1C#N; > 100 µM
O=C1NC2CCCCC2N=C1/C(C(=O)c1ccccc1)=C(\O)c1ccccc1 (configuration not stated); > 100 µM
CCN(CC)C(=O)COc1cc2c(O)c3c(O)c(C)c4c(c13)C(=O)C(C)(OC=CC(OC)C(C)C(OC(C)=O)C(C)C(O)C(C)C(O)C(C)C=CC=C(C)C(=O)N2)O4 (configuration not stated); > 100 µM
COc1ccc(/C(=N/Nc2nc3ccccc3[nH]2)C(=O)O)cc1; > 100 µM
Cc1c2ccncc2c(C)c2c1c1cc(CO)ccc1n2C; 6.02 µM
CCNc1ncnc2c1nnn2CC; > 100 µM
COc1cccc2c1C(=O)c1c(O)c3c(c(O)c1C2=O)C[C@@](O)(C(=O)CO)C[C@@H]3OC1CC(N2CCOCC2C#N)C(O)C(C)O1 (some centres not stated); 0.02 µM
Cc1cc(S(=O)(=O)Nc2nc3ccccc3n2-c2ccccc2)c(S)cc1Cl; > 100 µM
N#Cc1c(Nc2nc3ccccc3s2)c2ccccc2n2c1nc1ccccc12; > 100 µM
N#CC(C#N)=C(N)/C(C#N)=C/c1ccc2[nH]ccc2c1; > 100 µM
CC(=O)O.CC(=O)O.CC(=O)O.CC(=O)O.[Rh].[Rh]; > 100 µM
Cc1cc(NC(=O)c2cnc(N3CCN(CCOCCOCCOCCOCCC(=O)N[C@H](C(=O)N4C[C@H](O)C[C@H]4C(=O)N[C@@H](C)c4ccc(-c5scnc5C)cc4)C(C)(C)C)CC3)cn2)c2ncccc2c1; > 100 µM
Cc1ccc(N=C2SC(c3ccc(C)cc3)(c3ccc(C)cc3)c3ccccc32)cc1; > 100 µM
CCn1c2ccc(O)c(C(=O)OC)c2c2cc3ccccc3c(O)c21; 40.8 µM
Brc1cccc(-c2cc(-c3ccc4nccnc4c3)[nH]n2)c1; > 200 µM
